SYSTEM NAME: il10ra, Q13651
Sequence (Q13651 whole entry): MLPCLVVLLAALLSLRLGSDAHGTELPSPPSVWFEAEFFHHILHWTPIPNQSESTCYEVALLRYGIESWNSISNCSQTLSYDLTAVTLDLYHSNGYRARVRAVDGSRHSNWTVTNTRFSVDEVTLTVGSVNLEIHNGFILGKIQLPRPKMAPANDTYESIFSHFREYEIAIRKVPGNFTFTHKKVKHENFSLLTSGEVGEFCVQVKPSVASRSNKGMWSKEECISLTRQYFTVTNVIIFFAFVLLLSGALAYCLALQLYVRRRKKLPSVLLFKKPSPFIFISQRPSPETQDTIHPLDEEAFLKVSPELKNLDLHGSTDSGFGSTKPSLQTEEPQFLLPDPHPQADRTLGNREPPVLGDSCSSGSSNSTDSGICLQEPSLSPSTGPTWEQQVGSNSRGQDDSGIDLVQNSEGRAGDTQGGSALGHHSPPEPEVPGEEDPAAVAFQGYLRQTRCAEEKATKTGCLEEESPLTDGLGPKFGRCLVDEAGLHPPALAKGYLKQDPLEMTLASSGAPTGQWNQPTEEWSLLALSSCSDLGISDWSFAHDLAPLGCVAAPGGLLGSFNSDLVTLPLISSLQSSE
PROTOCOL NOTES: yeast display titration
A selection follows. The hit rate among all sequences tested is not known here.
MEASUREMENT NAME: apparent Kd

Reported apparent Kd, binder il10ra_site1_sap_33_mot_HHH_b2_07521_000000141_0001_20_37_H_._HHH_b2_01915_0001_0000700039_0000001_1_0001 (protein) SSSSSEEVEELLEQARELAEEGDFEEAAKLLLEALQIAAELQDPELLRLVWEVLHEVARLNSSSS : ____ > 2.78 µM (inactive)

Every entry's value here was drawn from paper PMC10163288.
